experiment: Maximum tolerated dose (MTD) / acute toxicity of a single injection in mice; conditions: female, BALB/C, mouse, in vivo
Structures can show the parent of a compound that is named as a salt.
metric name: MTD at 17 days

So what does the record say about MTD at 17 days for COc1cccc2c1C(=O)c1c(O)c3c(c(O)c1C2=O)C[C@@](O)(C(=O)CO)C[C@@H]3O[C@H]1C[C@H](N)[C@H](O)[C@H](C)O1 [doxorubicin hydrochloride, reference compound] ?
4 to 8 µmol/kg
